# assayed-target: UniProt:O00470
# Sequence (O00470 whole entry): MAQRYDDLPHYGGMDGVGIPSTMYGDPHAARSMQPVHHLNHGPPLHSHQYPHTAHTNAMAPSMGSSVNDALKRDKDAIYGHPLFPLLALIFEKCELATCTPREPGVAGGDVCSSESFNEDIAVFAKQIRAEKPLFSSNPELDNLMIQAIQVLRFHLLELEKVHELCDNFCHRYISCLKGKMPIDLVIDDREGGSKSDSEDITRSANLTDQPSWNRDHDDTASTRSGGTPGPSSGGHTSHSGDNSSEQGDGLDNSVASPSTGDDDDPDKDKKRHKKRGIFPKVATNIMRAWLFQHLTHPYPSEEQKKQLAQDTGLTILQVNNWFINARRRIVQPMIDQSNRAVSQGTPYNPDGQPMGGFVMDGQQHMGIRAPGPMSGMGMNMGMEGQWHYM
# assay-procedure: Inhibition of MEIS1 (unknown origin) expressed in HEK293T cells co-expressing MEIS-Luc-pGL2 assessed as luciferase activity at 10 uM incubated for 48 hrs by luciferase reporter assay related to […] control
# Format: cell-based
# Parameters: scale not given: the % may be the effect or the level left
measured-endpoint: Activity (%)
Note: unit % is implicit; provide only the numeric part.

Query string: Data request, read-out Activity, for Cc1cccc(NC(=O)c2ccc(OCC(=O)NCc3ccc(Cl)cc3)cc2)c1C
Result string: 34

Query string: What does the record list as Activity for COc1ccc(CNC(=O)COc2ccc(C(=O)Nc3ccc(OC)c(OC)c3)cc2)cc1 ?
Result string: 70

Query string: Param item = CCc1cccc(NC(=O)c2ccc(OCC(=O)NCc3ccc(OC)cc3)cc2)c1 ; retrieve measured Activity.
Result string: 51

Query string: // lookup Activity for O=C(COc1ccc(C(=O)Nc2cccc(C(F)(F)F)c2)cc1)NCc1ccccc1Cl
Result string: 57

Query string: Tell me the measured Activity of Cc1cccc(NC(=O)c2ccc(OCC(=O)NCc3ccccc3Cl)cc2)c1C , please.
Result string: 34

Query string: Fill in: Activity of Cc1cccc(NC(=O)c2ccc(OCC(=O)NCc3ccc(C(F)(F)F)cc3)cc2)c1C is ___
Result string: 81

Query string: Recorded Activity of O=C(COc1ccc(C(=O)Nc2ccc(Oc3ccc(Br)cc3)cc2)cc1)NCc1ccc(Cl)cc1 , please.
Result string: 42

Query string: # Activity lookup, item Cc1cccc(NC(=O)c2ccc(OCC(=O)NCc3ccc(F)cc3)cc2)c1C
Result string: 36

Query string: For the molecule shown here, CCc1ccccc1NC(=O)c1ccc(OCC(=O)NCc2ccc(Cl)cc2)cc1 , give the reported Activity.
Result string: 36

Query string: Any idea what Activity was measured for COc1ccc(CNC(=O)COc2ccc(C(=O)Nc3cccc(C)c3C)cc2)cc1OC ?
Result string: 35

Query string: Query (molecule): O=C(COc1ccc(C(=O)Nc2ccc(F)cc2)cc1)NCc1ccc(Cl)cc1 ; field requested: Activity
Result string: 43

Query string: Consider the molecule shown here: COc1ccc(CNC(=O)COc2ccc(C(=O)Nc3ccccc3F)cc2)cc1 What is its recorded Activity?
Result string: 70

Query string: So what's the measured Activity for this one? O=C(COc1ccc(C(=O)Nc2ccc(F)cc2)cc1)NCc1ccccc1Cl
Result string: 50

Query string: Query (molecule): O=C(COc1ccc(C(=O)Nc2ccccc2)cc1)NCc1ccc(Cl)cc1 ; field requested: Activity
Result string: 75

Query string: Query (molecule): COc1ccc(CNC(=O)COc2ccc(C(=O)Nc3c(C)cccc3C)cc2)cc1 ; field requested: Activity
Result string: 62

Query string: Could you tell me which Activity is on file for O=C(COc1ccc(C(=O)Nc2cccc(C(F)(F)F)c2)cc1)NCc1ccc(Cl)cc1 ?
Result string: 44

Query string: # query: Activity of entry CCc1cccc(NC(=O)c2ccc(OCC(=O)NCc3ccccc3Cl)cc2)c1
Result string: 41

Query string: // returns reported Activity for input CCc1ccccc1NC(=O)c1ccc(OCC(=O)NCc2ccc(OC)cc2)cc1
Result string: 20

Query string: Bench note: what Activity did CCc1cccc(NC(=O)c2ccc(OCC(=O)NCc3ccc(Cl)cc3)cc2)c1 show?
Result string: 49

Query string: Would you mind telling me what Activity value was observed for Cc1cccc(NC(=O)c2ccc(OCC(=O)NCc3ccc([N+](=O)[O-])cc3)cc2)c1C ?
Result string: 144

* * *

What viability at 72 h, 10 µM was measured for each of the following?
# assay-procedure: Cytotoxicity against HDF assessed as cell viability at 10 uM incubated for 72 hrs by MTS assay
# Format: cell-based
# condition-notes: human, HDF (NHDF) cells, read-out: Activity
Give your result in % as a bare value.

Query string: // returns reported viability at 72 h, 10 µM for input Cc1cccc(NC(=O)c2ccc(OCC(=O)NCc3ccccc3Cl)cc2)c1C
Result string: 64.8

Query string: # query: viability at 72 h, 10 µM of entry COc1ccc(CNC(=O)COc2ccc(C(=O)Nc3cc(C(F)(F)F)ccc3F)cc2)cc1
Result string: 105

Query string: Item under review: COc1ccc(CNC(=O)COc2ccc(C(=O)Nc3cccc(C)c3C)cc2)cc1 . Reported viability at 72 h, 10 µM?
Result string: 86.3

Query string: If you can, please state the reported viability at 72 h, 10 µM value of CCc1ccccc1NC(=O)c1ccc(OCC(=O)NCc2ccc(Cl)cc2)cc1 .
Result string: 31.3

Query string: So what's the measured viability at 72 h, 10 µM for this one? COc1ccc(CNC(=O)COc2ccc(C(=O)Nc3cccc(Cl)c3)cc2)cc1
Result string: 90

Query string: What value of viability at 72 h, 10 µM has been recorded for this entry: Cc1cccc(NC(=O)c2ccc(OCC(=O)NCc3ccc(Cl)cc3)cc2)c1C
Result string: 73.5

Query string: What viability at 72 h, 10 µM value was documented for this compound, COc1ccc(CNC(=O)COc2ccc(C(=O)Nc3cccc(C)c3C)cc2)cc1OC ?
Result string: 83.9

Query string: Quick one: viability at 72 h, 10 µM for CCc1ccccc1NC(=O)c1ccc(OCC(=O)NCc2ccc(OC)cc2)cc1 ?
Result string: 78

Query string: Form field: reported viability at 72 h, 10 µM of COc1ccc(CNC(=O)COc2ccc(C(=O)Nc3cccc(C(F)(F)F)c3)cc2)cc1
Result string: 76

Query string: Which viability at 72 h, 10 µM reading was recorded for the compound O=C(COc1ccc(C(=O)Nc2cccc(Cl)c2)cc1)NCc1ccc(Cl)cc1 ?
Result string: 86.4

Query string: Bench note: what viability at 72 h, 10 µM did Cc1cccc(NC(=O)c2ccc(OCC(=O)NCc3ccc(F)cc3)cc2)c1C show?
Result string: 90.4

Query string: Requested read-out: viability at 72 h, 10 µM. Entry: COc1ccc(CNC(=O)COc2ccc(C(=O)Nc3ccc(F)cc3)cc2)cc1
Result string: 86.2

* * *

# assayed-target: Homeobox protein Meis1 (Homo sapiens)
# assay-procedure: Inhibition of MEIS1 (unknown origin) expressed in HEK293T cells co-expressing MEIS-Luc-pGL2 assessed as luciferase activity at 10 uM incubated for 48 hrs by luciferase reporter assay related to protein content
# Type: cell-based
# Set-up: scale not given: the % may be the effect or the level left
Kindly supply the reported Activity values for the records listed here.
Record the result as a number with its unit.

Query string: Find the recorded Activity belonging to O=C(COc1ccc(C(=O)Nc2cccc(C(F)(F)F)c2)cc1)NCc1ccccc1Cl and report it.
Result string: 64%

Query string: Fill in the blank: the reported Activity of Cc1cccc(NC(=O)c2ccc(OCC(=O)NCc3ccc(Cl)cc3Cl)cc2)c1C is ____.
Result string: 52%

Query string: Entry Cc1cccc(NC(=O)c2ccc(OCC(=O)NCc3ccc(F)cc3)cc2)c1C has what Activity?
Result string: 40%

Query string: Please give the measured Activity for this compound: O=C(COc1ccc(C(=O)Nc2ccccc2)cc1)NCc1ccccc1Cl
Result string: 54%

Query string: Which Activity is reported for this compound? Cc1cccc(C)c1NC(=O)c1ccc(OCC(=O)NCc2ccccc2Cl)cc1
Result string: 53%

Query string: # input compound: COc1ccc(CNC(=O)COc2ccc(C(=O)Nc3ccccc3)cc2)cc1 ; wanted: its Activity
Result string: 43%

Query string: I'd like to know its Activity. The compound in question is CCc1ccccc1NC(=O)c1ccc(OCC(=O)NCc2ccccc2Cl)cc1
Result string: 63%

Query string: Endpoint output: Activity of Cc1cccc(NC(=O)c2ccc(OCC(=O)NCc3ccc4c(c3)OCO4)cc2)c1C . Value?
Result string: 52%

Query string: # get_value(readout='Activity', item= Cc1cccc(C)c1NC(=O)c1ccc(OCC(=O)NCc2ccc(Cl)cc2)cc1 )
Result string: 77%

Query string: Need Activity, item O=C(COc1ccc(C(=O)Nc2cccc(C(F)(F)F)c2)cc1)NCc1ccc(Cl)cc1
Result string: 46%

Query string: State the recorded Activity for this entry: Cc1ccc(CNC(=O)COc2ccc(C(=O)Nc3cccc(C)c3C)cc2)cc1
Result string: 48%

* * *

Assign Activity to each entry below.
# assayed-target: Homeobox protein Meis1 (Homo sapiens)
# assay-procedure: Inhibition of MEIS1 (unknown origin) expressed in HEK293T cells co-expressing MEIS-Luc-pGL2 assessed as luciferase activity at 10 uM incubated for 48 hrs by luciferase reporter assay related to protein content
# Type: cell-based
# Set-up: scale not given: the % may be the effect or the level left
Note: state the figure and append the unit.

Query string: Request - read-out Activity | tested on Homeobox protein Meis1 (Homo sapiens) | compound CCc1ccccc1NC(=O)c1ccc(OCC(=O)NCc2ccc(OC)cc2)cc1
Result string: 19%

Query string: # returns recorded Activity (system: Homeobox protein Meis1 (Homo sapiens)) for O=C(COc1ccc(C(=O)Nc2ccccc2)cc1)NCc1ccc(Cl)cc1
Result string: 83%

Query string: Form: Entry = Cc1cccc(NC(=O)c2ccc(OCC(=O)NCc3ccc([N+](=O)[O-])cc3)cc2)c1C | System = Homeobox protein Meis1 (Homo sapiens) | Activity = ____
Result string: 23%

Query string: Notebook entry, Homeobox protein Meis1 (Homo sapiens) assay: Activity of Cc1cccc(NC(=O)c2ccc(OCC(=O)NCc3ccc(Cl)cc3)cc2)c1C = ?
Result string: 38%

Cited source for all entries: ChEMBL document CHEMBL4828764
